Provenance of the data: patent US20220119354A1

Tested on: ducksalad (Heteranthera limosa)
Experiment: Test B flooded paddy test, ducksalad
Type: in vivo
Conditions: Flood, 250 g ai/ha, applied to paddy water, 2-leaf stage, visual evaluation after 13 to 15 d
OBSERVABLE: Plant response rating, Ducksalad (0 to 100 scale, 0 is no effect, 100 is complete control)
Write no unit; give the number alone.

Recorded Plant response rating, Ducksalad (0 to 100 scale, 0 is no effect, 100 is complete control), per entry:
>>> numeric_readout("C[C@@H](Nc1ncc(C(F)(F)F)c(N)n1)c1coc2cc(Cl)ccc12")
70
>>> numeric_readout("Nc1nc(N[C@H](c2coc3ccccc23)C2CC2)ncc1C(F)(F)F")
0
>>> numeric_readout("C[C@@H](Nc1ncc(C(F)(F)F)c(N)n1)c1cc2cc(C(F)(F)F)ccc2o1")
0
>>> numeric_readout("Cc1cc(OCC(C)Nc2ncc(C(F)(F)F)c(N)n2)ccc1F (stereo not drawn)")
0
>>> numeric_readout("CC(Nc1ncc(C(F)(F)F)c(N)n1)c1cc2c(Cl)cccc2o1 (stereo not drawn)")
20

**Query** Could you share which Plant response rating, Ducksalad (0 to 100 scale, 0 is no effect, 100 is complete control) value was measured for CC(Nc1nc(N)c(C(F)(F)F)c(C(F)(F)F)n1)c1cc2ccccc2o1 (racemic) ?
**Result** 0

**Query** Could you share which Plant response rating, Ducksalad (0 to 100 scale, 0 is no effect, 100 is complete control) value was measured for CC(COc1cccc(F)c1)Nc1ncc(C(F)(F)F)c(N)n1 (stereo not drawn) ?
**Result** 0

**Query** Could you share which Plant response rating, Ducksalad (0 to 100 scale, 0 is no effect, 100 is complete control) value was measured for Nc1nc(NC(c2cc3ccccc3o2)C2CC2)ncc1C(F)(F)F (racemic) [Compound 18] ?
**Result** 85

**Query** Could you share which Plant response rating, Ducksalad (0 to 100 scale, 0 is no effect, 100 is complete control) value was measured for Cc1ccc2cc([C@@H](C)Nc3ncc(C(F)(F)F)c(N)n3)oc2c1 ?
**Result** 0

**Query** Could you share which Plant response rating, Ducksalad (0 to 100 scale, 0 is no effect, 100 is complete control) value was measured for CCC(Nc1ncc(C(F)(F)F)c(N)n1)c1cc2ccccc2o1 (racemic) ?
**Result** 75

**Query** Could you share which Plant response rating, Ducksalad (0 to 100 scale, 0 is no effect, 100 is complete control) value was measured for CC(Nc1ncc(C(F)(F)F)c(N)n1)c1cc2ccc(Cl)cc2s1 (racemic) ?
**Result** 0

**Query** Could you share which Plant response rating, Ducksalad (0 to 100 scale, 0 is no effect, 100 is complete control) value was measured for Cc1cc(F)cc(OCC(C)Nc2ncc(C(F)(F)F)c(N)n2)c1 (stereo not drawn) ?
**Result** 0

**Query** Could you share which Plant response rating, Ducksalad (0 to 100 scale, 0 is no effect, 100 is complete control) value was measured for CC(Nc1nc(N)c(C(F)(F)F)c(C(F)(F)F)n1)c1coc2ccccc12 (stereo not drawn) ?
**Result** 0

**Query** Could you share which Plant response rating, Ducksalad (0 to 100 scale, 0 is no effect, 100 is complete control) value was measured for C[C@H](Nc1ncc(C(F)(F)F)c(N)n1)C1Cc2ccccc2C1 ?
**Result** 0

**Query** Could you share which Plant response rating, Ducksalad (0 to 100 scale, 0 is no effect, 100 is complete control) value was measured for CC[C@@H](Nc1ncc(C(F)(F)F)c(N)n1)c1cc2ccc(F)cc2s1 ?
**Result** 0

**Query** Could you share which Plant response rating, Ducksalad (0 to 100 scale, 0 is no effect, 100 is complete control) value was measured for Nc1nc(N[C@@H](c2coc3ccccc23)C2CC2)ncc1C(F)(F)F ?
**Result** 98

**Query** Could you share which Plant response rating, Ducksalad (0 to 100 scale, 0 is no effect, 100 is complete control) value was measured for CC[C@@H](Nc1ncc(C(F)(F)F)c(N)n1)c1coc2ccccc12 ?
**Result** 85

**Query** Could you share which Plant response rating, Ducksalad (0 to 100 scale, 0 is no effect, 100 is complete control) value was measured for C[C@@H](Nc1ncc(C(F)(F)F)c(N)n1)c1cccc2ccccc12 ?
**Result** 30

====

System: ragweed (common ragweed, Ambrosia elatior)
Assay: Test A preemergence, ragweed
Format: in vivo
Conditions: 125 g ai/ha, 0 to 100 scale
Item-by-item account of Plant response rating, Ragweed
Write no unit; give the number alone.

>>> numeric_readout("Cc1ccc2oc([C@@H](C)Nc3ncc(C(F)(F)F)c(N)n3)cc2c1")
0

**Query** Could you share which Plant response rating, Ragweed value was measured for CC(Nc1ncc(C#N)c(N)n1)c1cc2ccccc2o1 (racemic) ?
**Result** 0

**Query** Could you share which Plant response rating, Ragweed value was measured for C[C@H](Nc1ncc(C(F)(F)F)c(N)n1)c1cc2ccccc2s1 ?
**Result** 0

**Query** Could you share which Plant response rating, Ragweed value was measured for Cc1cc2cc([C@@H](C)Nc3ncc(C(F)(F)F)c(N)n3)oc2cc1C ?
**Result** 0

**Query** Could you share which Plant response rating, Ragweed value was measured for CC(Nc1ncc(C(F)(F)F)c(N)n1)C1Cc2ccccc2C1 (racemic) ?
**Result** 30

**Query** Could you share which Plant response rating, Ragweed value was measured for CCc1ccc2oc([C@@H](C)Nc3ncc(C(F)(F)F)c(N)n3)cc2c1 ?
**Result** 0

**Query** Could you share which Plant response rating, Ragweed value was measured for CCC(Nc1ncc(C(F)(F)F)c(N)n1)c1cc2ccccc2o1 (racemic) ?
**Result** 20

**Query** Could you share which Plant response rating, Ragweed value was measured for C[C@@H](Nc1ncc(C(F)(F)F)c(N)n1)c1cccc2ccccc12 ?
**Result** 100

**Query** Could you share which Plant response rating, Ragweed value was measured for Cc1ccc2cc([C@@H](C)Nc3ncc(C(F)(F)F)c(N)n3)oc2c1 ?
**Result** 100

**Query** Could you share which Plant response rating, Ragweed value was measured for CC(CCc1ccccc1)Nc1ncc(C(F)(F)F)c(N)n1 (stereo not drawn) ?
**Result** 0

**Query** Could you share which Plant response rating, Ragweed value was measured for C[C@@H](Nc1ncc(C(F)(F)F)c(N)n1)c1cc2cc(Cl)ccc2o1 ?
**Result** 0

**Query** Could you share which Plant response rating, Ragweed value was measured for C[C@@H](Nc1ncc(C(F)(F)F)c(N)n1)C1Cc2ccccc2C1 ?
**Result** 100

**Query** Could you share which Plant response rating, Ragweed value was measured for C[C@@H](Nc1ncc(C(F)(F)F)c(N)n1)c1cc2cc(F)ccc2o1 ?
**Result** 0

**Query** Could you share which Plant response rating, Ragweed value was measured for Cc1cc(C)cc(OC[C@@H](C)Nc2ncc(C(F)(F)F)c(N)n2)c1 ?
**Result** 80

**Query** Could you share which Plant response rating, Ragweed value was measured for CC[C@H](COc1cc(C)cc(C)c1)Nc1ncc(C(F)(F)F)c(N)n1 ?
**Result** 70

**Query** Could you share which Plant response rating, Ragweed value was measured for C[C@@H](Nc1ncc(C(F)(F)F)c(N)n1)c1cc2ccc(C(F)(F)F)cc2o1 ?
**Result** 30

**Query** Could you share which Plant response rating, Ragweed value was measured for C[C@@H](Nc1ncc(C(F)(F)F)c(N)n1)c1cc2cc(C(F)(F)F)ccc2o1 ?
**Result** 0

**Query** Could you share which Plant response rating, Ragweed value was measured for Nc1nc(NC(c2cc3ccccc3o2)C2CC2)ncc1C(F)(F)F (racemic) ?
**Result** 80

====

Test system: blackgrass (Alopecurus myosuroides)
Experiment: Test A postemergence, blackgrass
Assay type: in vivo
Details: 125 g ai/ha, 0 to 100 scale, 0 no effect, 100 complete control
OBSERVABLE: Plant response rating, Blackgrass
Write no unit; give the number alone.

>>> numeric_readout("C[C@H](Nc1ncc(C(F)(F)F)c(N)n1)c1cc2cccc(F)c2o1 [Compound 72]")
0
>>> numeric_readout("C[C@H](Nc1ncc(C(F)(F)F)c(N)n1)c1cc2ccccc2n1C [Compound 76]")
0
>>> numeric_readout("Nc1nc(NC(c2cc3ccccc3s2)C2CC2)ncc1C(F)(F)F (racemic) [Compound 94]")
0
>>> numeric_readout("C[C@@H](Nc1ncc(C(F)(F)F)c(N)n1)c1cc2ccc(F)cc2s1 [Compound 46]")
20
>>> numeric_readout("C[C@@H](Nc1ncc(C#N)c(N)n1)c1cc2ccccc2s1 [Compound 104]")
0

**Query** Could you share which Plant response rating, Blackgrass value was measured for CC[C@@H](Nc1ncc(C(F)(F)F)c(N)n1)c1cc2ccc(F)cc2o1 [Compound 63] ?
**Result** 0

**Query** Could you share which Plant response rating, Blackgrass value was measured for C[C@H](Nc1ncc(C(F)(F)F)c(N)n1)c1coc2ccc(F)cc12 [Compound 56] ?
**Result** 0

**Query** Could you share which Plant response rating, Blackgrass value was measured for Cc1ccc2c(C(C)Nc3ncc(C(F)(F)F)c(N)n3)coc2c1 (stereo not drawn) [Compound 85] ?
**Result** 40

**Query** Could you share which Plant response rating, Blackgrass value was measured for C[C@@H](Nc1nc(N)c(C(F)(F)F)c(C(F)(F)F)n1)c1cc2ccccc2o1 [Compound 65] ?
**Result** 0
